Assay target: human δ opioid receptor (Homo sapiens)
Sequence (P41143 whole entry): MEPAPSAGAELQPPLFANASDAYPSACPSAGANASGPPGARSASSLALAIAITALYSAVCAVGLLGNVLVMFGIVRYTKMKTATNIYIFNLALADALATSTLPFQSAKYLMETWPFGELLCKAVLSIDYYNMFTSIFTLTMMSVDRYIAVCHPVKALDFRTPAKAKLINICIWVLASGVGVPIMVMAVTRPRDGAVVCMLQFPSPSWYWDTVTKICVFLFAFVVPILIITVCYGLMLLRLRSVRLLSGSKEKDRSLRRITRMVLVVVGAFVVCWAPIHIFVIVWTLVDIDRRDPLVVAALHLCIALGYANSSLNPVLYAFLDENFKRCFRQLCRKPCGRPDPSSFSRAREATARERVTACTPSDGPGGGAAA
Procedure details: Opioid receptor-mediated stimulation of [35S]GTPγS binding
Method: Chinese hamster ovary (CHO) cells are stably transfected with the cloned human μ, κ, or δ opioid receptors. […] To determine the IC50 value, which is the concentration to give half-maximal inhibition of agonist-stimulated [35S]GTPγS binding, the cpm of [35S]GTPγS bound in the presence of a fixed concentration of agonist and various concentrations of antagonist is measured. […] The IC50 value is determined from a best nonlinear regression fit of the data which is performed using the program Prism®.
pEC50: −log10 of the molar value.

- Line notation: "Clc1ccc2c(c1)N=C(N1CCNCC1)c1ccccc1N2"
  pEC50: 6.54
